methodNotes: Cytotoxicity in mammalian cells (Cell Titer Glo)
Type: cell-based
conditions: African green monkey; Vero cells, 50 µM, relative to untreated control
measuredQuantity: viability at 24 h, 50 µM (%)

compound="CC1C(NCc2cn(C3OCC(O)C(O)C3O)c3ccccc23)CC2CC1C2(C)C (stereo not drawn)" measuredquantity="viability at 24 h, 50 µM" experimentalresult=83.5
compound="C[C@@H]1N=C(c2ccccc2Cl)c2cc([N+](=O)[O-])ccc2NC1=O [MZM, meclonazepam, reference compound]" measuredquantity="viability at 24 h, 50 µM" experimentalresult=87
compound="O=C(C1CCCCC1)N1CC(=O)N2CCc3ccccc3C2C1 (stereo not drawn)" measuredquantity="viability at 24 h, 50 µM" experimentalresult=88.9
